- test target: murine GPC3-his protein (Sino Biological, Cat. No. 50989-M08B) (murine) (UniProt Q8CFZ4)
- Sequence (Q8CFZ4 25-558 limits assumed): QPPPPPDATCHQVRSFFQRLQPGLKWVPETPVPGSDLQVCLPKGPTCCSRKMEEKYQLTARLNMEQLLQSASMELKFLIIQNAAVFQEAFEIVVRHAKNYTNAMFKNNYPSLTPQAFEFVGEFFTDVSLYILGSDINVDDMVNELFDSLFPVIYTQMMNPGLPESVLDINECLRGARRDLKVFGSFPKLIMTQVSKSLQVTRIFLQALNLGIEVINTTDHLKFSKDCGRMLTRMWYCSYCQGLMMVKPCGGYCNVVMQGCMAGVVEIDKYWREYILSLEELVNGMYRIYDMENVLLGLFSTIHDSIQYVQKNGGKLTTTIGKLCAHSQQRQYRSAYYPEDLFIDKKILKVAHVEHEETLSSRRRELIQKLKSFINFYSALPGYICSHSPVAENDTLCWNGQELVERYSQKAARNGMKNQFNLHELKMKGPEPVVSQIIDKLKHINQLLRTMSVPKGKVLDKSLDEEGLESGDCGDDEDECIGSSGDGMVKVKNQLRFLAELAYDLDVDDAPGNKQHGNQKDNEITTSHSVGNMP
- measurement protocol: ELISA, coated murine GPC3-His
metric: OD450 at 10 nM antibody (OD450 nm)
Write the answer as a number in OD450 nm, unit excluded.

- binder: "F1.73.9 human-murine chimeric antibody (antibody, human IgG1, kappa, V domains shown) VH: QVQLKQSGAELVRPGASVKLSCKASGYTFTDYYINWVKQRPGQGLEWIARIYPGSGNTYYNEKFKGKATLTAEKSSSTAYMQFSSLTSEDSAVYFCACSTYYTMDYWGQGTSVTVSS VL: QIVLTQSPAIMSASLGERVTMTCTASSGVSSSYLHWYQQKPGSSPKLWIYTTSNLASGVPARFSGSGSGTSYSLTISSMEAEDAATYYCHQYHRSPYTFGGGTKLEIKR"
  unit abbrev: "OD450 nm"
  OD450 at 10 nM antibody: 0.86
- binder: "F1.120.16 human-murine chimeric antibody (antibody, human IgG1, kappa, V domains shown) VH: EFQLQQSGPELVKPGASVKISCKASGYSFTDYNMNWVKQSNGKSLEWIGLIHPKFSVTSYNRKFKGKATLTVDQSSSTAYMQLNSLTSEDSAVYYCARWAGDYFDYWGQGTTLTVSS VL: DIVLTQSPATLSVTPGDSVSLSCRASQSISNNLHWYQQKSHESPRLLIKYASQSISGIPSRFSGSGSGTDFTLTINSVETEDFGMYFCQQSNSWPQTFGGGTKLEIKR"
  unit abbrev: "OD450 nm"
  OD450 at 10 nM antibody: 0.8
- binder: "F1.115.8 human-murine chimeric antibody (antibody, human IgG1, kappa, V domains shown) VH: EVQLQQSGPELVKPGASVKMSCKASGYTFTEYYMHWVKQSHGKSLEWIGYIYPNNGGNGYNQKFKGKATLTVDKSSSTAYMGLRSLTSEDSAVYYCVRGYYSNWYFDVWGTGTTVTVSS VL: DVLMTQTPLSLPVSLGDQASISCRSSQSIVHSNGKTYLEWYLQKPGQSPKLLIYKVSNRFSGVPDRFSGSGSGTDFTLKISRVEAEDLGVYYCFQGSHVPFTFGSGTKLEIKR"
  unit abbrev: "OD450 nm"
  OD450 at 10 nM antibody: 0.7

From here, focus on the item given below.
Item F1.57.21 human-murine chimeric antibody (antibody, human IgG1, kappa, V domains shown) VH: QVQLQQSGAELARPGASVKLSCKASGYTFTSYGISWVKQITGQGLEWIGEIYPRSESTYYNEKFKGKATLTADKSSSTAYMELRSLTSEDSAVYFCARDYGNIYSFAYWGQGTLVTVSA VL: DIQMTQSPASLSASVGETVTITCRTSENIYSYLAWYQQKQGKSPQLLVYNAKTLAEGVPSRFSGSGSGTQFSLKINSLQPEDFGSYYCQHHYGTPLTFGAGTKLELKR has what recorded OD450 at 10 nM antibody?
0.79

Data credit: patent US20260116991A1
